# target_desc: T1, β-catenin (UniProt P35222 134-665, limits assumed, biotinylated in the SPR and plate assays)
# T1 sequence (looked up): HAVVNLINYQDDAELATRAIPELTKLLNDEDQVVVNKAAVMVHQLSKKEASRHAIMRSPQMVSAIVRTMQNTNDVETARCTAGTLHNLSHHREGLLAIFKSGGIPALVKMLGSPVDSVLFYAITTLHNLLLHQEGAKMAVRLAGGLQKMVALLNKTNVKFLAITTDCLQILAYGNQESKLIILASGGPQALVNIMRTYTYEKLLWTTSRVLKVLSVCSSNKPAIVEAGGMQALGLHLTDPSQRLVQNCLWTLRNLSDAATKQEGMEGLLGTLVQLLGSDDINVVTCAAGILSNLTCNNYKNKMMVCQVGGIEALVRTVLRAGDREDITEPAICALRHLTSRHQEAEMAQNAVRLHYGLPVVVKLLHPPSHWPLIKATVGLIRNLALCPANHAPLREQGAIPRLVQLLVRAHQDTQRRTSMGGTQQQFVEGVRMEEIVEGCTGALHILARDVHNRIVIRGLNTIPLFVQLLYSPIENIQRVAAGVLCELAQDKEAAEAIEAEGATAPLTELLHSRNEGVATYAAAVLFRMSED
# assay: cell-based or functional assay
Bridges are numbered along the chain shown (N, C = ends). Where no end group is shown, it is not given here. [ ]: non-standard residue; d: D form. The star is where a group is joined. NMeW = CN[C@@H](Cc1c[nH]c2ccccc12)C(=O)O; αMeF = C[C@](N)(Cc1ccccc1)C(=O)O; Chg = N[C@H](C(=O)O)C1CCCCC1; Lauroyl = CCCCCCCCCCCC(=O)*; αMeS = C[C@](N)(CO)C(=O)O; NMeA = CN[C@@H](C)C(=O)O
measured_quantity: Wnt Reporter EC50

Solved cases below.
binder	Wnt Reporter EC50
H-W[NMeW]E[αMeS]ILDEHVQRVWG-NH2 [SEQ ID NO: 40]	> 30 µM
H-MWFLISFWRG-OH [SEQ ID NO: 49]	≤ 7.5 µM
KMSRMWYLISFWG (HELM PEPTIDE1{K.M.S.R.M.W.Y.L.I.S.F.W.G}$PEPTIDE1,PEPTIDE1,1:R3-13:R2$$$V2.0; SMILES CC[C@H](C)[C@@H]1NC(=O)[C@H](CC(C)C)NC(=O)[C@H](Cc2ccc(O)cc2)NC(=O)[C@H](Cc2c[nH]c3ccccc23)NC(=O)[C@H](CCSC)NC(=O)[C@H](CCCNC(=N)N)NC(=O)[C@H](CO)NC(=O)[C@H](CCSC)NC(=O)[C@@H](N)CCCCNC(=O)CNC(=O)[C@H](Cc2c[nH]c3ccccc23)NC(=O)[C@H](Cc2ccccc2)NC(=O)[C@H](CO)NC1=O) [SEQ ID NO: 27]	> 30 µM
KSRHWFLISFW-NH2 [SEQ ID NO: 94]	> 30 µM
Lauroyl-W[NMeA]QSILDKH[Chg]QDVW-NH2 (lactam 8-12; not fully specified; printed as Lauroyl-NH-W-NMeA-QSILDK*H-Chg-QD*VW-NH2) [SEQ ID NO: 461]	≤ 7.5 µM
H-MWFLISFW-OH [SEQ ID NO: 112]	≤ 7.5 µM
Ac-WFLISFWG-OH (also called Hit 5) [SEQ ID NO: 220]	≤ 7.5 µM
H-MW[αMeF]LISFWG-OH [SEQ ID NO: 133]	> 30 µM

// batch mode: one Wnt Reporter EC50 value per listed entry
1. WFLISFW-NH2 [SEQ ID NO: 98]
2. H-MSRKWFLISFWG-OH [SEQ ID NO: 59]
3. WSRHWFLISFW-NH2 [SEQ ID NO: 91]

### Response
1: > 30 µM; 2: > 30 µM; 3: > 30 µM
